Item-by-item account of protein stability index
B1: IRX6 (parent)
chain: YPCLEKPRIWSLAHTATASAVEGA

Variants of: B1
Assay: protein stability index of a GFP-peptide fusion (GPS, HEK-293T) (PSI 1-6); higher = more stable;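 note: lentivirally expressed fusions sorted by FACS into six bins by GFP to DsRed ratio, PSI derived from sequencing read proportions per bin multiplied by bin number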
Details: c terminus: a fixed tail appended
REPORTED ENDPOINT: protein stability index

{"columns": ["RESIDUE CODES", "REPORTED VALUE"],
 "data": [
  ["YPCLEKPQIWSLAHTATASAVEGA [R8Q]", 1.96],
  ["YPCLEKPRIWSGAHTATASAVEGA [L12G]", 2.03],
  ["YPCLAKPRIWSLAHTATASAVEGA [E5A]", 1.95],
  ["YPCLEKPRIWSLAHTATWSAVEGA [A18W]", 2.05]
]}
